test system: Male Slc-ddy mice; experiment: Anti-nicotinic effect (survival after intravenous nicotine bitartrate); type: in vivo; conditions: Mus musculus, 0.5 h, oral, nicotine bitartrate 3 mg/10 ml/kg i.v. after 30 min, Litchfield-Wilcoxon, 95 % confidence limit in brackets, read-out: ED₅₀ values for the anti-nicotinic effect
Structures can show the parent of a compound that is named as a salt.
measuredEndpoint: ED50 (mg/kg)
All answers are understood in mg/kg, so give the number only.

Given item CCc1ccc(C2(C(C)Cn3ccnc3)OCCO2)cc1 (stereo not shown) [Compound 23] , the value recorded as its ED50 is 46

CCc1ccc(C(=O)C(C)Cn2ccnc2)cc1 (stereo not shown) [Compound 2] yielded ED50 of 26

Record summary for CCc1ccc(C(=O)C(C)CN2CCCCC2)cc1 (stereo not shown) [Eperisone hydrochloride, reference compound] : reported ED50 = 140

get_value(item= Cc1ccc(C(=O)C(C)Cn2ccnc2)cc1C (stereo not shown) [Compound 14] , readout=ED50) returns 32

* * *

Can you tell me LD50 at 168 h for the items I'm about to list?
experiment: Acute toxicity test; assay type: in vivo; settings: mouse, in vivo, po, mice, observation for 7 days, Litchfield-Wilcoxon, 95% confidence limit in brackets, read-out: LD₅₀ values (50% of lethal dose)
Where a name gives a salt, the structure may show the parent alone.
Reply with a number, then the unit it belongs to.

For reference, reported LD50 at 168 h for CCc1ccc(C(=O)C(C)CN2CCCCC2)cc1 (stereo not shown) [Eperisone hydrochloride, reference compound] stands at 303 mg/kg

Lab note: Cc1ccc(C(=O)C(C)Cn2ccnc2)cc1C (stereo not shown) gave LD50 at 168 h of 209 mg/kg

# compound CCc1ccc(C(=O)C(C)Cn2ccnc2)cc1 (stereo not shown) ; its LD50 at 168 h = 218 mg/kg

The value of LD50 at 168 h measured for the compound CCc1ccc(C2(C(C)Cn3ccnc3)OCCO2)cc1 (stereo not shown) turned out to be 415 mg/kg

* * *

test system: Male Slc-ddy mice; assay: Inhibitory effect on the motor coordination (rotating rod test); assay type: in vivo; details: Mus musculus, 0.5 h, oral, rotating rod 30 min after administration, falling off within 60 s counted as positive, 95% confidence limit in brackets, read-out: ED₅₀ values for the inhibitory effect on the motor coordination
measuredEndpoint: ED50 (mg/kg)
Field format: number, assumed mg/kg, no unit text.

Measured ED50, CCc1ccc(C2(C(C)Cn3ccnc3)OCCO2)cc1 (stereo not shown) [Compound 23] : 210

Data point: CCc1ccc(C(=O)C(C)Cn2ccnc2)cc1 (stereo not shown) [Compound 2] ; ED50 = 200

For record CC(Cn1ccnc1)C(=O)c1ccc2ccccc2c1 (stereo not shown) [Compound 15] the listed ED50 is 152

GET /value?item= Cc1ccc(C(=O)C(C)Cn2ccnc2)cc1C (stereo not shown) [Compound 14] &field=ED50 returns 100

* * *

test system: Male Slc-ddy mice; experiment: Anti-nicotinic effect (survival after intravenous nicotine bitartrate); assay type: in vivo; conditions: 100 mg/10 ml/kg oral, 30 min, compared with eperisone hydrochloride
Where a name gives a salt, the structure may show the parent alone.
measuredEndpoint: Anti-nicotinic effect Effect

compound	Anti-nicotinic effect Effect
CC(Cn1ccnc1)C(=O)c1ccc2c(c1)Cc1ccccc1-2 (stereo not drawn)	◎
CCc1ccc(C(=O)C(CC)Cn2ccnc2)cc1.Cl (stereo not drawn)	◎
CCCc1ccc(C(=O)C(C)Cn2ccnc2)cc1 (stereo not drawn)	◎
CCc1ccc(C(=O)C(C)Cn2cncn2)cc1 (stereo not drawn)	○

Note to self: Anti-nicotinic effect Effect recorded for CC(Cn1ccnc1)C(=O)c1ccc(Cl)cc1 (stereo not drawn) [Compound 3, hydrochloride] was 0

// Anti-nicotinic effect Effect lookup, compound = CCc1ccc(C(=O)C(CC)CN2CCCCC2)cc1.Cl (stereo not drawn) , result: 0

Record CC(Cn1ccnc1)C(=O)c1ccc2ccccc2c1 (stereo not drawn) . Reported Anti-nicotinic effect Effect: ◎

Query `CC(C)(CN1CCCC1)C(=O)c1ccc(Cl)cc1` yields Anti-nicotinic effect Effect of ○

Record Cc1ccc(C(=O)C(C)Cn2ccnc2)cc1C (stereo not drawn) . Reported Anti-nicotinic effect Effect: ◎

Per the records, this compound ( CCc1ccc(C(=O)C(CN2CCCCC2)C(C)C)cc1 (stereo not drawn) ) has Anti-nicotinic effect Effect equal to 0

Recorded values, source patent EP0423524A2.
